- System: MiaPaCa-2 cells
- assay: MTT assay of MiaPaCa2 cultures, single 50 μM dose
- Format: cell-based, human
- condition.summary: MiaPaCa2, 50 μM, 48 hours, average minus blank
Rule: fulfilled for MTT assay result, av-blank not less than 0.2, not fulfilled for anything less.

Answered cases to consult:
{"compound": "Cc1c(C)c2c(c(C)c1OC(=O)CCC(=O)O)CC[C@@](C)(CCC[C@H](C)CCC[C@H](C)CCCC(C)C)O2 [TS, tocopherol succinate]", "cat": "not fulfilled"}
{"compound": "O=C(O)CCC(=O)O", "cat": "fulfilled"}
{"compound": "CC(C)=CCC/C(C)=C/CC/C(C)=C/CC[C@]1(C)CCc2c(C)c(O)cc(C)c2O1", "cat": "not fulfilled"}
{"compound": "CC(C)=CCC/C(C)=C/CC/C(C)=C/CC/C(C)=C/CO", "cat": "fulfilled"}
{"compound": "Cc1c(C)c2c(c(C)c1O)CC[C@@](C)(CCC[C@H](C)CCC[C@H](C)CCCC(C)C)O2", "cat": "fulfilled"}
{"compound": "CC(C)=CCC/C(C)=C/CC/C(C)=C/CC[C@]1(C)CCc2cc(O)cc(C)c2O1", "cat": "fulfilled"}

Lookup: Answer whether MTT assay result, av-blank of CC(C)=CCC/C(C)=C/CC/C(C)=C/CC[C@]1(C)CCc2cc(O)c(C)c(C)c2O1 is greater than or equal to 0.2.
Found: not fulfilled

Lookup: Hi, just wondering whether Cc1c(O)cc2c(c1C)O[C@](C)(CCC[C@H](C)CCC[C@H](C)CCCC(C)C)CC2 shows MTT assay result, av-blank of 0.2 or higher.
Found: fulfilled

###

- System: SW1990 pancreatic cancer cells
- assay: MTS assay of SW1990 cultures, single 50 μM dose
- Type: cell-based, human
- condition.summary: SW1990, 50 μM, 48 hours, run 8
metric: MTS assay result, run 8
Give bare numbers.

Guide cases for MTS assay result, run 8, answers given:
{"compound": "O=C(O)CCC(=O)O", "reported": 0.178}
{"compound": "Cc1c(C)c2c(c(C)c1OC(=O)CCC(=O)O)CC[C@@](C)(CCC[C@H](C)CCC[C@H](C)CCCC(C)C)O2 [TS, tocopherol succinate]", "reported": 0.173}
{"compound": "Cc1c(C)c2c(c(C)c1O)CC[C@@](C)(CCC[C@H](C)CCC[C@H](C)CCCC(C)C)O2", "reported": 0.146}
{"compound": "CC(C)=CCC/C(C)=C/CC/C(C)=C/CC[C@]1(C)CCc2c(C)c(O)cc(C)c2O1", "reported": 0.102}
{"compound": "CC(C)=CCC/C(C)=C/CC/C(C)=C/CC[C@]1(C)CCc2cc(O)cc(C)c2O1", "reported": 0.142}

For each of the compounds below, note its MTS assay result, run 8.
1. Cc1c(O)cc2c(c1C)O[C@](C)(CCC[C@H](C)CCC[C@H](C)CCCC(C)C)CC2
2. CC(C)=CCC/C(C)=C/CC/C(C)=C/CC/C(C)=C/CO
3. CC(C)=CCC/C(C)=C/CC/C(C)=C/CC[C@]1(C)CCc2cc(O)c(C)c(C)c2O1

Found:
1. 0.164
2. 0.144
3. 0.16

###

- Tested on: SW1990 pancreatic cancer cells
- assay: MTS assay of SW1990 cultures, single 50 μM dose
- Type: cell-based, human
- condition.summary: SW1990, 50 μM, 48 hours, run 5
metric: MTS assay result, run 5
Give bare numbers.

{"compound": "CC(C)=CCC/C(C)=C/CC/C(C)=C/CC[C@]1(C)CCc2cc(O)c(C)c(C)c2O1 [T3 gamma, gamma tocotrienol]", "metric": "MTS assay result, run 5", "reported": 0.137}
{"compound": "Cc1c(O)cc2c(c1C)O[C@](C)(CCC[C@H](C)CCC[C@H](C)CCCC(C)C)CC2 [T gamma]", "metric": "MTS assay result, run 5", "reported": 0.142}
{"compound": "O=C(O)CCC(=O)O [SA, succinic acid]", "metric": "MTS assay result, run 5", "reported": 0.177}
{"compound": "CC(C)=CCC/C(C)=C/CC/C(C)=C/CC[C@]1(C)CCc2c(C)c(O)cc(C)c2O1 [T3 beta, beta tocotrienol]", "metric": "MTS assay result, run 5", "reported": 0.109}
{"compound": "Cc1c(C)c2c(c(C)c1O)CC[C@@](C)(CCC[C@H](C)CCC[C@H](C)CCCC(C)C)O2 [T alpha, alpha tocopherol]", "metric": "MTS assay result, run 5", "reported": 0.154}
{"compound": "CC(C)=CCC/C(C)=C/CC/C(C)=C/CC[C@]1(C)CCc2cc(O)cc(C)c2O1 [T3 delta, delta tocotrienol]", "metric": "MTS assay result, run 5", "reported": 0.126}
{"compound": "Cc1c(C)c2c(c(C)c1OC(=O)CCC(=O)O)CC[C@@](C)(CCC[C@H](C)CCC[C@H](C)CCCC(C)C)O2 [TS, tocopherol succinate]", "metric": "MTS assay result, run 5", "reported": 0.148}

Lookup: Fill in: MTS assay result, run 5 of CC(C)=CCC/C(C)=C/CC/C(C)=C/CC/C(C)=C/CO [GG, geranylgeraniol] is ___
Found: 0.133
